The measurements presented in this section are drawn from ChEMBL document CHEMBL3885861.

organism: Rattus norvegicus; test: Open TG-GATES - Regimen: Daily Repeat; format: toxicity, organism-based, Sprague-Dawley; design: regimen Daily Repeat, gender Male, age 6 weeks; conditions: in vivo, po, 300 mg/kg, 72 h, tissue Plasma, route gavage, dose level Middle, time 3 day
property: BUN

Examples from the recorded data:
>>> result("CCOc1ccc(NC(C)=O)cc1 [PHENACETIN]")
"13 mg/dL"
>>> result("CN/C(=N/CCSCc1nc[nH]c1C)NC#N [CIMETIDINE]")
"15.8 mg/dL"
>>> result("Cc1nnc2n1-c1ccc(Cl)cc1C(c1ccccc1Cl)=NC2 [TRIAZOLAM]")
"14.6 mg/dL"

Next compound, please.
Query :: Report BUN for CNC(=C[N+](=O)[O-])NCCSCc1ccc(CN(C)C)o1 [RANITIDINE]
Result :: 14.8 mg/dL
